Cited source for all entries: patent US20210347873A1

Biological target: T1, cynomolgus BLyS (full length, arginine to histidine at position 132) on CHO-K1 cells (cynomolgus, UniProt Q9Y275 1-285 (human entry))
T1 construct: also called cyno BLyS; CHO-K1 cynoBLyS
T1 chain: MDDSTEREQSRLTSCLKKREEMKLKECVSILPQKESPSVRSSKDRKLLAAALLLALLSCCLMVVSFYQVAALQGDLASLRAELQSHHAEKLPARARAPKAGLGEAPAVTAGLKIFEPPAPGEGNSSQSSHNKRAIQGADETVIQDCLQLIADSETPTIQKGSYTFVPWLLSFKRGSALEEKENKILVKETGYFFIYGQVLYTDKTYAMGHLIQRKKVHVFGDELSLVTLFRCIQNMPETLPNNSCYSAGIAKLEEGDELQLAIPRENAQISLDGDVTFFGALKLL
Experiment: flow cytometry, CHO-K1 cynoBLyS cells, antibody 66.7 nM
ASSAY METRIC: MFI (MFI)
State just the number; it will be interpreted in MFI.

Past entries and their recorded results:
BINDER	UNIT OF MEASURE	MFI
L9G7 (antibody, V domains shown, From a human naive scFv phage library; also called human BLyS antibody L9G7) VH: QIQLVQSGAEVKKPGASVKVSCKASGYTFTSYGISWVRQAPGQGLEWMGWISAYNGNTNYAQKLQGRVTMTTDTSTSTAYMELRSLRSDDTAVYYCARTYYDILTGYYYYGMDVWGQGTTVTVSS VL: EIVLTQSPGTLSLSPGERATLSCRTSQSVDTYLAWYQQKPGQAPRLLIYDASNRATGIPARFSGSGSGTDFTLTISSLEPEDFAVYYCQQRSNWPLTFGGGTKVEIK	MFI	1340
97E7B3F2 (antibody, V domains shown, Mouse hybridoma monoclonal antibody purified on Protein G) VH: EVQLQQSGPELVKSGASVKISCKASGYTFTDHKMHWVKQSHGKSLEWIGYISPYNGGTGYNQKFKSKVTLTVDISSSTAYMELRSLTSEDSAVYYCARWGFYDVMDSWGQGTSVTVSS VL: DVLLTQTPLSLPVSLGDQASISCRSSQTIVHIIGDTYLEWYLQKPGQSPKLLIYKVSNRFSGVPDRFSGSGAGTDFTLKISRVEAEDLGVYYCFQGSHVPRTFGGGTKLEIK	MFI	770
97A3C2H4 (antibody, V domains shown, Mouse hybridoma monoclonal antibody purified on Protein G) VH: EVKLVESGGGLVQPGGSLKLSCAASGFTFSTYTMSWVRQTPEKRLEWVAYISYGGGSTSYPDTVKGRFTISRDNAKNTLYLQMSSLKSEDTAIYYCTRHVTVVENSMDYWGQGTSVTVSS VL: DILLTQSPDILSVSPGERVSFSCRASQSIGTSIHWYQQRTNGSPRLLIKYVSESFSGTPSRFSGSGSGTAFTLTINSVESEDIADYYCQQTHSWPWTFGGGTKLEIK	MFI	987
111D10D6G3 (antibody, V domains shown, Mouse hybridoma monoclonal antibody purified on Protein G) VH: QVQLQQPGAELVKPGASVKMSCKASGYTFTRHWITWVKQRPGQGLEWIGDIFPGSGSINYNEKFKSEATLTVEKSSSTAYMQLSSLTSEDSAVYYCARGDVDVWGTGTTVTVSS VL: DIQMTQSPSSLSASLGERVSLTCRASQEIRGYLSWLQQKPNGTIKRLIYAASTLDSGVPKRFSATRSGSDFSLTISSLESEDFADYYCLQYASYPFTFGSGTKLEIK	MFI	539
2-1G11 (antibody, V domains shown, From a human naive scFv phage library; also called human BLyS antibody 2-1G11) VH: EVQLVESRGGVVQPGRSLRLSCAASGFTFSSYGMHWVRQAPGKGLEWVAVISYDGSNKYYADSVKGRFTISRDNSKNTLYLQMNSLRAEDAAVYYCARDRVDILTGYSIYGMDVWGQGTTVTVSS VL: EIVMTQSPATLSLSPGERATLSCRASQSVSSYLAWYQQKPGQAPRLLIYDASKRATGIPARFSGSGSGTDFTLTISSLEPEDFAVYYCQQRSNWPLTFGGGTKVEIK	MFI	1460

Recorded MFI (binder 89A2G5E7 (antibody, V domains shown, Mouse hybridoma monoclonal antibody purified on Protein G) VH: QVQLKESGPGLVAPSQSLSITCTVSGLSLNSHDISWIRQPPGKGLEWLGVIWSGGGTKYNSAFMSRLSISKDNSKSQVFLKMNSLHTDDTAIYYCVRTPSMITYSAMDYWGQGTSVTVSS VL: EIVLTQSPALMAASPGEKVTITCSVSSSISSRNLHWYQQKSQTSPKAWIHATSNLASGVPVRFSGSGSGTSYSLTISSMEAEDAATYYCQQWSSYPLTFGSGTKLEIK ): 884

The binder identified as L1D12 (antibody, V domains shown, From a human naive scFv phage library; also called human BLyS antibody L1D12; LID12) VH: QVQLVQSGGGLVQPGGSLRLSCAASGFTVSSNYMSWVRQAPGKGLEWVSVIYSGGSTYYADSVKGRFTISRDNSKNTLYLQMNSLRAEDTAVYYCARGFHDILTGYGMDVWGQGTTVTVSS VL: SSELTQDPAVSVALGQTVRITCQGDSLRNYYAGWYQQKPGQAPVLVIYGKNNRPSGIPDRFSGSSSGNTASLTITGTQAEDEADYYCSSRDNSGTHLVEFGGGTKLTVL registered its MFI at 1180

According to the records, this binder 93C6F10D3 (antibody, V domains shown, Mouse hybridoma monoclonal antibody purified on Protein G) VH: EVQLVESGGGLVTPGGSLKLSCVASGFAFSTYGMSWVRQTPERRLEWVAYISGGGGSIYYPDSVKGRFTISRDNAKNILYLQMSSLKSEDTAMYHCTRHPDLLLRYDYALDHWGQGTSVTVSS VL: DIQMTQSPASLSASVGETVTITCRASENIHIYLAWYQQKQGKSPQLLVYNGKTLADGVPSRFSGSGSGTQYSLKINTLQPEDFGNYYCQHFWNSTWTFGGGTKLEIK displays MFI of 785

The binder identified as 20D1B6E9E5 (antibody, V domains shown, Mouse hybridoma monoclonal antibody purified on Protein G) VH: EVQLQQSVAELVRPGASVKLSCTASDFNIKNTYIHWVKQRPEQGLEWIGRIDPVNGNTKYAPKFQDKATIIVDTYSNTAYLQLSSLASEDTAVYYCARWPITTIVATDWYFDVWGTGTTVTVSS VL: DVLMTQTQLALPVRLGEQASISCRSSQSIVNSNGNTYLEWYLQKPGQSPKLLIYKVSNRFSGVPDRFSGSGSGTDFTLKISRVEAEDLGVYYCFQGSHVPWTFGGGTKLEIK registered its MFI at 1030

Summary for this binder, 78C11D2D12 (antibody, V domains shown, Mouse hybridoma monoclonal antibody purified on Protein G) VH: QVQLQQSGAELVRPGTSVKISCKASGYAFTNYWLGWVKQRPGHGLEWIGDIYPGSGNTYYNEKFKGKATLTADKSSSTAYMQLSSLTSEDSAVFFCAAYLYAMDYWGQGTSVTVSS VL: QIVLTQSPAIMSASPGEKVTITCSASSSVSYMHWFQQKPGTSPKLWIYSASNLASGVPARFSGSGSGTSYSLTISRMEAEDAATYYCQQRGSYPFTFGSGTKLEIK : MFI is 664
